- TARGET_OF_ASSAY: mKCC4 (Mus musculus, UniProt Q9WVL3)
- Construct: a full-length mKCC4 cDNA was used as a standard in the Xenopus expression vector pGEMHE; expressed in transfected cells; host or cells: Xenopus laevis oocytes injected with cRNA (pGEMHE, T7 transcript)
- PROTOCOL_TEXT: 86Rb+ uptake (K+-Cl- cotransport) in Xenopus oocytes injected with mKCC4 cRNA
- Format: cell-based
- RUN_CONDITIONS: KCC4; 10 mM extracellular K+; read-out: apparent half-maximal inhibition (K=0.5) of Cl−-dependent 86Rb+ uptake
pIC50: −log10 of the molar value.
READOUT_LABEL: pIC50

Query :: Need pIC50, item CCCCNc1cc(C(=O)O)cc(S(N)(=O)=O)c1Oc1ccccc1 [bumetanide]
Result :: ~3.05
